Molecular target: M4AChR (Homo sapiens, UniProt P08173)
Sequence (P08173 1-479): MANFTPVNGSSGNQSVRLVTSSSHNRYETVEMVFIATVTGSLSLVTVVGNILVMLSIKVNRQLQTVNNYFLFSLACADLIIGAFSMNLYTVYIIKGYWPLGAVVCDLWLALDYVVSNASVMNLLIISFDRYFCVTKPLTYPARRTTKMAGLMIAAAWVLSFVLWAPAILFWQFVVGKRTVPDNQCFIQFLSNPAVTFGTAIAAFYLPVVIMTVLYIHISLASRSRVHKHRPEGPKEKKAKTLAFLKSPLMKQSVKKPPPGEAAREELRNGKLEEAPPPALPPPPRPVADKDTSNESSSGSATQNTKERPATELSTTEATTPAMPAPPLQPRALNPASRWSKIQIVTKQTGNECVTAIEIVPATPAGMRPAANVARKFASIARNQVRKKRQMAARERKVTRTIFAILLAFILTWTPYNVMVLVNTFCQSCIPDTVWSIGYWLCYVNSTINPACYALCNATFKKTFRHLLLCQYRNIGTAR

SMILES: CCCSc1nsnc1[C@H]1CN2CCC[C@H]1C2
Ki, nM: 0.282

----------
Target: human M1 muscarinic receptor (Homo sapiens)
Assay: GTP-γ-[35S] binding, antibody capture SPA (agonist and antagonist mode)
pEC50: −log10 of the molar value.
READOUT KIND: pEC50

COMPOUND: CCCSc1nsnc1[C@H]1CN2CCC[C@H]1C2 [PTAC]
SYSTEM UNDER TEST: human M1 muscarinic receptor (Homo sapiens)
READOUT KIND: pEC50
MEASURED RESULT: 9.43

----------
Target: M5AChR (Homo sapiens, UniProt P08912)
Sequence (P08912 1-532): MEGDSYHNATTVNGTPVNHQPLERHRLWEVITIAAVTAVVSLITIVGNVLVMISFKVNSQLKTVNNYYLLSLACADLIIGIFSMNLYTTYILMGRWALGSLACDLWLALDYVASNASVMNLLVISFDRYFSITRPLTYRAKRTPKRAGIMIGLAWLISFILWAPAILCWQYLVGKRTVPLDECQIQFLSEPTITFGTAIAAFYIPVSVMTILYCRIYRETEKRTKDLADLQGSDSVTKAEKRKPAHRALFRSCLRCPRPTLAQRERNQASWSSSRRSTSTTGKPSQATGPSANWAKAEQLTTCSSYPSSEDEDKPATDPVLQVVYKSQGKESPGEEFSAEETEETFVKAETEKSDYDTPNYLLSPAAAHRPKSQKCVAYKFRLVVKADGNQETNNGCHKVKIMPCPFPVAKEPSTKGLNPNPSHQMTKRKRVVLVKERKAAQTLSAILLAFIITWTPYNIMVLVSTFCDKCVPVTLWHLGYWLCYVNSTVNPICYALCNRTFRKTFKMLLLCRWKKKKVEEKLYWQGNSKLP
READOUT KIND: Ki (pM)

SMILES: CCCSc1nsnc1[C@H]1CN2CCC[C@H]1C2
U: pM
MEASURED RESULT: 372

----------
Molecular target: UniProt P08172
Sequence (P08172 whole entry): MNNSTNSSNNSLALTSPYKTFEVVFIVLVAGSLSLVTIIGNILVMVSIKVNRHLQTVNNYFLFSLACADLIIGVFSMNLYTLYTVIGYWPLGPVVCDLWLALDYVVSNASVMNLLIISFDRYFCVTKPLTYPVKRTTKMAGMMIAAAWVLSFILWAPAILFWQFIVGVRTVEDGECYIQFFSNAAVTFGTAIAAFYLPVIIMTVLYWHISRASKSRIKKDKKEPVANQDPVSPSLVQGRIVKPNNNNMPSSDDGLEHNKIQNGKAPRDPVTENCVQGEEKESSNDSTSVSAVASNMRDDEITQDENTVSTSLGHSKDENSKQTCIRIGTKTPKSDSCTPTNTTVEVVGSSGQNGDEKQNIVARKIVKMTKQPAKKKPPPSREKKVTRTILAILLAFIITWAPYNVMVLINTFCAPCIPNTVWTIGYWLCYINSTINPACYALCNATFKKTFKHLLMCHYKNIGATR
Experiment: GTP-γ-[35S] binding, antibody capture SPA (agonist and antagonist mode)

SMILES: CCCSc1nsnc1[C@H]1CN2CCC[C@H]1C2
EC50, nM: 0.501

----------
Target: human M4 muscarinic receptor (Homo sapiens, UniProt P08173)
Assay: GTP-γ-[35S] binding, antibody capture SPA (agonist and antagonist mode)

SMILES: CCCSc1nsnc1[C@H]1CN2CCC[C@H]1C2
EC50 (nM): 1.48

----------
Target: M1AChR (Homo sapiens, UniProt P11229)
Sequence (P11229 1-460): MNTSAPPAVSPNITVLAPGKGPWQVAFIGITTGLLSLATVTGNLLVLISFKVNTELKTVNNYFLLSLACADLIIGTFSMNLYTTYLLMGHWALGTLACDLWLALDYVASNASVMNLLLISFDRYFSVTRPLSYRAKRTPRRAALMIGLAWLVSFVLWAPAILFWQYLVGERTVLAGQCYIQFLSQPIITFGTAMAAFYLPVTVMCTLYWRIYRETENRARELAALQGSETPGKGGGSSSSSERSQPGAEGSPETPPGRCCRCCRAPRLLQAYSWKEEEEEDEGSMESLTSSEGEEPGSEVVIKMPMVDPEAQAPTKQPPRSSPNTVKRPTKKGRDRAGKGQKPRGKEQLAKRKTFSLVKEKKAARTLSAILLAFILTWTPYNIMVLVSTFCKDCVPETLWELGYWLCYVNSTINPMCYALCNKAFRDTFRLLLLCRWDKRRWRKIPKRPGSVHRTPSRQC

SMILES: CCCSc1nsnc1[C@H]1CN2CCC[C@H]1C2
Ki / nM: 1.05

----------
Target: human M3 muscarinic receptor (Homo sapiens, UniProt P20309)
Construct: purchased PerkinElmer Life and Analytical Sciences, Boston, MA
Sequence (P20309 whole entry): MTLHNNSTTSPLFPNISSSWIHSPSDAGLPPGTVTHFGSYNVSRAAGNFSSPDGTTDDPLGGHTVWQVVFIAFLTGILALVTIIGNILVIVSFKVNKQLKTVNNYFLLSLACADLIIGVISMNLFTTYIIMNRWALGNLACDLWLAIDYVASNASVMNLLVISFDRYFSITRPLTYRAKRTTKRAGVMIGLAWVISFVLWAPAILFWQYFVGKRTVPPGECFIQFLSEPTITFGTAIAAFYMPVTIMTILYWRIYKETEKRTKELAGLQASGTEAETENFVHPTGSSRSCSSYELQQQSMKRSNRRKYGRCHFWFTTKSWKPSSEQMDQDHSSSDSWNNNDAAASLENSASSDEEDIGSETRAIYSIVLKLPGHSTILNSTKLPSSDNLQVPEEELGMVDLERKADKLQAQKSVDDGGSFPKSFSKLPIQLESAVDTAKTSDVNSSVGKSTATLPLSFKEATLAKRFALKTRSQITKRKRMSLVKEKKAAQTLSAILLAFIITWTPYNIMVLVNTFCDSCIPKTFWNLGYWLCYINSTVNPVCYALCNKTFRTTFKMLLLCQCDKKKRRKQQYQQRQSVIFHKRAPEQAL
Assay: GTP-γ-[35S] binding, antibody capture SPA (agonist and antagonist mode)
Type: biochemical
pEC50: −log10 of the molar value.

MOLECULE: CCCSc1nsnc1[C@H]1CN2CCC[C@H]1C2 [PTAC]
pEC50: 8.71
